Recorded Potency values for a group of molecules are listed next.
# protocol notes: BET inhibitor-based combinations targeting novel dependencies in MECOM-rearranged (r) AML: AML-191 cell line (AID 2202236; also: potency is read from the fitted curve at half-maximal effect; nearly all actives have a fitted effect of over 35% in size)
# condition context: AML-191 viability, CellTiter-Glo luminescence, 48 h; series mostly up to 46 µM
Results filed as inconclusive are left out. Active and inactive are the calls of the source. Calls follow the shape of the dose curve; as a rule, active = well fitted inhibition curve with a large enough effect; inconclusive = small, poorly fitted or top-dose-only effect; inactive = flat fitted curve, though single readings scatter.
quantity kind: Potency

molecule	result
CN(C)CC[C@H](CSc1ccccc1)Nc1ccc(S(=O)(=O)NC(=O)c2ccc(N3CCN(Cc4ccccc4-c4ccc(Cl)cc4)CC3)cc2)cc1[N+](=O)[O-]	2.35 µM (active)
CC[C@@]1(O)C(=O)OCc2c1cc1n(c2=O)Cc2c-1nc1cc(F)c(C)c3c1c2[C@@H](N)CC3	0.0083 µM (active)
CCC(=O)N1CCOc2c(cc(-c3cc(OC)cc(OC)c3)cc2C(=O)N[C@H]2CCCN(C)C2)C1	14.8 µM (active)
COC1CCC(N2C(=O)CNc3ncc(-c4ccc(C(C)(C)O)nc4)nc32)CC1 (centres undefined)	5.9 µM (active)
